system: HOP-92; assay: NCI tumour cell line growth inhibition, 48 h
Active and inactive are the calls of the source. Cut-off read from the data, not from the text of the source: active = GI50 up to about 1.1 µM and inactive = higher.
Response enum: active, inactive

Here's what some known entries look like.
Cc1c(-c2coc(-c3ccccc3)n2)c(=O)n(-c2ccccc2)n1C : inactive
CC1CCC(=O)NCCCCC(=O)N1 (stereo not drawn) : inactive
COC(=O)c1c2c(cc3c1CC1(Cc4ccc(C(C)=O)cc4C1)C3)CCC2 (stereo not drawn) : inactive
Cc1coc2c1[C@@H](O)[C@@]1(C)[C@H](CCC[C@@H]1C)C2 : inactive

# ---- query compound ----
Query string: Look up the recorded call for `CCOC(=O)/C=C(/C(=O)OCC)n1cc(C)c(=O)n(Cc2cnnn2CCCCOC(C)=O)c1=O` in this test.
Result string: active

---

Listed here are molecules together with their documented GI50.
tested on: SK-MEL-2; assay: NCI tumour cell line growth inhibition, 48 h
Activity calls are given as the source filed them. Rule as the data show it: active = GI50 up to about 1.1 µM and inactive = higher.

N#Cc1c(N)nc2c(/N=N\c3ccccc3)c(N)nn2c1Nc1ccccc1 : 7.91 µM (inactive)

Query string: Requested read-out: GI50. Entry: CSCSCC(CO)NC(=O)/C=C\c1c(C)[nH]c(=O)[nH]c1=O (stereo not drawn)
Result string: 14.2 µM (inactive)

Query string: Requested read-out: GI50. Entry: `O=C(c1cc2ccccc2o1)N(Cc1ccccc1)c1ccccc1`
Result string: 33.8 µM (inactive)

---

test system: M19-MEL; experiment: NCI tumour cell line growth inhibition, 48 h
Activity calls are given as the source filed them. Rule as the data show it: active = GI50 up to about 1.1 µM and inactive = higher.
value-kind: GI50

Query string: Identify the measured GI50 of `Cc1nnc(N/N=C2\C(=O)Nc3ccccc32)n1N` for M19-MEL.
Result string: > 100 µM (inactive)

Query string: Identify the measured GI50 of CC(C)(C)c1cc(CCCCCCCC2(CCCCCCCc3cc(C(C)(C)C)cc(C(C)(C)C)c3)OC(COCCOCCCCCC#N)C(COCCOCCCCCC#N)O2)cc(C(C)(C)C)c1 (stereo not drawn) for M19-MEL.
Result string: > 100 µM (inactive)

Query string: Identify the measured GI50 of `CCc1cccc(C)c1NC(=O)CCc1nnc(S)[nH]1` for M19-MEL.
Result string: > 100 µM (inactive)

Query string: Identify the measured GI50 of `OC[C@H]1O[C@@H](n2cnc3c(S)ncnc32)[C@H](O)[C@@H]1O` for M19-MEL.
Result string: > 2500 µM (inactive)

Query string: Identify the measured GI50 of CSCSCC(CO)NC(=O)/C=C\c1c(C)[nH]c(=O)[nH]c1=O (stereo not drawn) for M19-MEL.
Result string: 9.75 µM (inactive)

Query string: Identify the measured GI50 of `O=[N+]([O-])c1cc(/C=N\NS(=O)(=O)c2ccc(Cl)cc2)c(O)c([N+](=O)[O-])c1` for M19-MEL.
Result string: 48.3 µM (inactive)

Query string: Identify the measured GI50 of `COc1cccc(NC(=S)Nn2c(C)nc3ccccc3c2=O)c1` for M19-MEL.
Result string: > 100 µM (inactive)

Query string: Identify the measured GI50 of CCCCCCCCC1=CCC(CN(C)C)C1=O (stereo not drawn) for M19-MEL.
Result string: 17.8 µM (inactive)

Query string: Identify the measured GI50 of C/C(=N\NS(=O)(=O)c1ccc(C)cc1)C(CN(C)C)C(c1ccccc1)c1c(O)c2ccccc2oc1=O (stereo not drawn) for M19-MEL.
Result string: > 100 µM (inactive)

Query string: Identify the measured GI50 of `CN1CCc2c1nc(-c1ccc([N+](=O)[O-])cc1)c1c2N(C)CC1` for M19-MEL.
Result string: > 100 µM (inactive)

Query string: Identify the measured GI50 of O=c1[nH]c(=O)n(C2CC(O)C(CS)O2)cc1F (stereo not drawn) for M19-MEL.
Result string: 77.6 µM (inactive)

Query string: Identify the measured GI50 of `O=C(c1ccc(F)cc1)c1cccc(C(=O)c2ccc(F)cc2)n1` for M19-MEL.
Result string: > 72.3 µM (inactive)

Query string: Identify the measured GI50 of CN(C(=O)C12C3C4C1C1C2C3C41C#N)C(C)(C)C (stereo not drawn) for M19-MEL.
Result string: > 100 µM (inactive)

---

system: OVCAR-8; assay: NCI tumour cell line growth inhibition, 48 h
Active and inactive are the calls of the source. Cut-off read from the data, not from the text of the source: active = GI50 up to about 1.1 µM and inactive = higher. Starred links: 1 amine or outer side, 2 acyl side, 3 side chain; linkers in the order of their positions; H or OH if unused. Non-standard residues stand in square brackets, D forms with d. Residues, ends and D or L forms follow the SMILES beside them. X4 = C[C@H](N[*:1])C(=O)C(C)(C)C(=O)[*:2]; Hmpa(2S,3S) = CC[C@H](C)[C@H](O)C(=O)O; NMeY = CN[C@@H](Cc1ccc(O)cc1)C(=O)O; NMeL = CN[C@@H](CC(C)C)C(=O)O; NMeV = CN[C@H](C(=O)O)C(C)C; βAla = NCCC(=O)O
Response enum: true (1) = active, false (0) = inactive

c1ccc(-c2cc(-c3cc(-c4ccccc4)no3)on2)cc1 : false (0)
CC(C)Oc1cc(O)c2c(c1)OCC=C2CCC(=O)O : false (0)
O=C(c1cc2ccccc2o1)N(Cc1ccccc1)c1ccccc1 : false (0)
CC(C)C1=CC2=CC[C@@H]3[C@](C)(CCC[C@@]3(C)C(=O)O)[C@H]2CC1 [ABIETIC ACID] : false (0)
Cc1ccc(C(=O)N2CCCCC2)cc1/N=N/N(C)C : false (0)
COc1cc(C(c2c(O)c3ccccc3oc2=O)c2c(O)c3ccccc3oc2=O)ccc1O : false (0)
CCC(=O)N(c1ccccc1)C(C)CN1CCC(O)(c2cccc(C(F)(F)F)c2)CC1 (stereo not given) : false (0)
OC[C@H]1O[C@@H](n2cnc3c(S)ncnc32)[C@H](O)[C@@H]1O [THIOINOSINE] : false (0)
CC[C@H](C)[C@@H]1OC(=O)CCNC(=O)[C@@H](C)NC(=O)C(C)(C)C(=O)[C@H](C)NC(=O)[C@H](Cc2ccc(OC)cc2)N(C)C(=O)[C@H](C(C)C)N(C)C(=O)CNC(=O)[C@H](CC(C)C)N(C)C(=O)CNC1=O (cyclo(G[NMeL]G[NMeV][NMeY](Me)[X4][dA][βAla][Hmpa(2S,3S)])) : false (0)
O=C1CSC(c2ccc([N+](=O)[O-])cc2)N1c1ccc(-n2c(-c3ccccc3)nc3ccccc3c2=O)cc1 (stereo not given) : false (0)

Query string: Look up the recorded call for CC(C)(C)C1CCC2c3c([nH]c4ccccc34)C3C(=O)N(c4ccccc4)C(=O)C3C2C1 (stereo not given) in this test.
Result string: false (0)

Query string: Look up the recorded call for C#CC1(O)CCC2[C@@H]3CCc4cc(Oc5nc(F)nc(-c6c7ccccc7c(SCC)n6CCC)n5)ccc4C3CC[C@@]21C (stereo not given in full) in this test.
Result string: false (0)

Query string: Look up the recorded call for COc1ccc2nc3c(c(N)c2c1)C1CCC3C1(C)C (stereo not given) in this test.
Result string: false (0)

Query string: Look up the recorded call for COC(=O)C1c2cc3c(cc2C(OC2OC(C)C(OC)C(C)(OC)C2OC)CC1(C)O)C(=O)c1c(O)cc2c(c1C3=O)OC1OC2(C)C(O)C([N+](C)(C)[O-])C1O (stereo not given) in this test.
Result string: true (1)

Query string: Look up the recorded call for `O=C(CN1CCOCC1)CC(O)(C(F)(F)F)C(F)(F)F` in this test.
Result string: false (0)

---

system: SK-MEL-28; test: NCI tumour cell line growth inhibition, 48 h
Calls of active or inactive are those of the source. Cut-off read from the data, not from the text of the source: active = GI50 up to about 1.1 µM and inactive = higher.
Listed here are compounds together with their documented GI50.

Example results:
CN1C(c2ccccc2)CC(=NO)CC1c1ccccc1 (stereo not drawn) : 91.2 µM (inactive)
CC1C2CC(C/C2=N/O)C1(C)C (stereo not drawn) : > 100 µM (inactive)

Query string: Requested read-out: GI50. Entry: `CCOC(=O)CSc1nc(-c2ccc(OC)cc2)c(C#N)c(=O)[nH]1`
Result string: > 100 µM (inactive)

---

system: DU-145; assay: NCI tumour cell line growth inhibition, 48 h
The source made the active and inactive calls. Cut-off read from the data, not from the text of the source: active = GI50 up to about 1.1 µM and inactive = higher.
value-kind: GI50

CS(=O)(=O)O[C@H]1[C@H](O)c2ccccc2[C@@H]1N=[N+]=[N-] : > 100 µM (inactive)
CCC(=O)Nc1ccc(NCC(=O)Nc2ccc(OC)cc2)cc1 : 31.8 µM (inactive)
COc1cc2c(cc1OC)-c1cc3cc(OC)c(OC)cc3c(C)[n+]1CC2.O=C([O-])CS(=O)(=O)O : > 100 µM (inactive)
CC(C)(C)OC(=O)NCC(=O)N1CCCN(C(=O)CNC(=O)OC(C)(C)C)CC1 : > 100 µM (inactive)

Query string: Requested read-out: GI50. Entry: `CN(C)CCN(C)P12(Oc3ccccc3O1)Oc1c(Cl)c(Cl)c(Cl)c(Cl)c1O2`
Result string: 85.5 µM (inactive)

Query string: Requested read-out: GI50. Entry: `O=c1[nH]c2cccc([N+](=O)[O-])c2c(=O)n1-c1ccc(Cl)cc1`
Result string: 15.1 µM (inactive)

Query string: Requested read-out: GI50. Entry: `O=C(CN1CCOCC1)CC(O)(C(F)(F)F)C(F)(F)F`
Result string: > 100 µM (inactive)
